Please go through the items and note down their Emax.
# TESTED_SYSTEM: Probable G-protein coupled receptor 142 (Homo sapiens) (UniProt Q7Z601)
# Sequence (whole entry): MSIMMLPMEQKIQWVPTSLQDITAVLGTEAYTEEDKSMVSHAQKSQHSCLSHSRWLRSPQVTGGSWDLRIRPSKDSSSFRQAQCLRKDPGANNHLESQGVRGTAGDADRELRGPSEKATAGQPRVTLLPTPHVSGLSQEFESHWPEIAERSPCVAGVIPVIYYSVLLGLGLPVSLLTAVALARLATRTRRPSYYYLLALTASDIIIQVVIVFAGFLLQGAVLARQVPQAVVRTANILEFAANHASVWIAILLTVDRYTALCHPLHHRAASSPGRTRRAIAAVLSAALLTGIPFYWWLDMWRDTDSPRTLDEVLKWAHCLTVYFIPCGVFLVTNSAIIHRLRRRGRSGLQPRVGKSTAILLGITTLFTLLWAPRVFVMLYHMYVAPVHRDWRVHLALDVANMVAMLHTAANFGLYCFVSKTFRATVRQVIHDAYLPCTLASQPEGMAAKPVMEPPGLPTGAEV
# ASSAY_PROCEDURE: Agonist activity at human GPR142 expressed in HEK293 cells assessed as inositol phosphate accumulation using [3H]-inositol after 1 hr by scintillation counting relative to tryptophan
# Assay type: functional, cell-based
Output spec: scalar in %, unitless text.

### Prompt Quick check: Emax on Probable G-protein coupled receptor 142 (Homo sapiens) (UniProt Q7Z601), item O=C(Nc1cc(-c2ccncc2)c[nH]c1=O)[C@H](Cc1ccccc1)NCc1ccccc1 ?
### Response 97

### Prompt Quick check: Emax on Probable G-protein coupled receptor 142 (Homo sapiens) (UniProt Q7Z601), item N[C@@H](CC1CCCCC1)C(=O)Nc1cc(-c2ccncc2)c[nH]c1=O ?
### Response 30

### Prompt Quick check: Emax on Probable G-protein coupled receptor 142 (Homo sapiens) (UniProt Q7Z601), item N[C@@H](Cc1ccc(Cl)cc1)C(=O)Nc1cc(-c2ccncc2)c[nH]c1=O ?
### Response 105

### Prompt Quick check: Emax on Probable G-protein coupled receptor 142 (Homo sapiens) (UniProt Q7Z601), item N[C@@H](Cc1cccc(Cl)c1)C(=O)Nc1cc(-c2ccncc2)c[nH]c1=O ?
### Response 50

### Prompt Quick check: Emax on Probable G-protein coupled receptor 142 (Homo sapiens) (UniProt Q7Z601), item N#Cc1ccc(C[C@H](N)C(=O)Nc2cc(-c3ccncc3)c[nH]c2=O)cc1 ?
### Response 79

### Prompt Quick check: Emax on Probable G-protein coupled receptor 142 (Homo sapiens) (UniProt Q7Z601), item O=C(Nc1cc(-c2ccncc2)c[nH]c1=O)[C@H](Cc1ccccc1)NCc1cscn1 ?
### Response 120

### Prompt Quick check: Emax on Probable G-protein coupled receptor 142 (Homo sapiens) (UniProt Q7Z601), item N[C@@H](Cc1ccc(F)cc1)C(=O)Nc1cc(-c2ccncc2)c[nH]c1=O ?
### Response 102

### Prompt Quick check: Emax on Probable G-protein coupled receptor 142 (Homo sapiens) (UniProt Q7Z601), item Cc1ccc(C[C@H](N)C(=O)Nc2cc(-c3ccncc3)c[nH]c2=O)cc1 ?
### Response 73

### Prompt Quick check: Emax on Probable G-protein coupled receptor 142 (Homo sapiens) (UniProt Q7Z601), item N[C@@H](Cc1ccccc1)C(=O)Nc1cc(-c2ccncc2)c[nH]c1=O ?
### Response 115

### Prompt Quick check: Emax on Probable G-protein coupled receptor 142 (Homo sapiens) (UniProt Q7Z601), item N[C@@H](Cc1ccccc1Cl)C(=O)Nc1cc(-c2ccncc2)c[nH]c1=O ?
### Response 42

### Prompt Quick check: Emax on Probable G-protein coupled receptor 142 (Homo sapiens) (UniProt Q7Z601), item Cc1cc(-c2c[nH]c(=O)c(NC(=O)[C@H](Cc3ccccc3)NCc3cscn3)c2)ccn1 ?
### Response 90

### Prompt Quick check: Emax on Probable G-protein coupled receptor 142 (Homo sapiens) (UniProt Q7Z601), item O=C(Nc1cc(-c2ccncc2)c[nH]c1=O)[C@H](Cc1ccccc1)NCC1CC1 ?
### Response 106

### Prompt Quick check: Emax on Probable G-protein coupled receptor 142 (Homo sapiens) (UniProt Q7Z601), item O=C(Nc1cc(-c2ccncc2)c[nH]c1=O)[C@H](Cc1ccccc1)NCCc1ccccc1 ?
### Response 67

### Prompt Quick check: Emax on Probable G-protein coupled receptor 142 (Homo sapiens) (UniProt Q7Z601), item N[C@H](Cc1ccccc1)C(=O)Nc1cc(-c2ccncc2)c[nH]c1=O ?
### Response 93

### Prompt Quick check: Emax on Probable G-protein coupled receptor 142 (Homo sapiens) (UniProt Q7Z601), item COc1ccc(C[C@H](N)C(=O)Nc2cc(-c3ccncc3)c[nH]c2=O)cc1 ?
### Response 40
